assay: Viability qHTS for spleen associated tyrosine kinase inhibitor (SYKi) drug resistant MV4-11 cells (AID 1963824); details: SYKi-resistant MV4-11 viability, CellTiter-Glo, 72 h; series mostly up to 45 µM; further: nearly all actives have a fitted effect of over 35% in size
Results filed as inconclusive are left out. Calls of active or inactive are those of the source. The call rests on the fitted dose curve; in most records, active means well fitted cell-killing curve with a large enough effect; inconclusive means small, poorly fitted or top-dose-only effect, or effect the other way; inactive means no such curve, though single readings can be large or run the other way.
Please reply with one of these outcomes: 1 = active, -1 = inactive

Cc1c(C)c2c(c(C)c1OC(=O)c1cccnc1)CC[C@@](C)(CCC[C@H](C)CCC[C@H](C)CCCC(C)C)O2 ... -1
c1cnc2cc3c(cc2n1)C1CNCC3C1 ... -1
C=CCNC1=C2C[C@@H](C)C[C@H](OC)[C@H](O)[C@@H](C)/C=C(\C)[C@H](OC(N)=O)[C@@H](OC)/C=C\C=C(/C)C(=O)NC(=CC1=O)C2=O ... 1
CC(C)CCCC(C)NCCC(C)C (stereo not given) ... -1

Query :: Short answer needed: outcome of this test for CN1CC(=O)NC1=NC(=O)Nc1cccc(Cl)c1 ?
Result :: -1

----------
assay: Viability qHTS for spleen associated tyrosine kinase inhibitor (SYKi) naive MV4-11 cells (AID 1963823); conditions: MV4-11 AML viability, CellTiter-Glo luminescence, 72 h; series mostly up to 45 µM; further: nearly all actives have a fitted effect of over 40% in size
Inconclusive results are not listed. Active and inactive are the calls of the source. Calls come from the whole dose curve; as a rule, active = well fitted cell-killing curve with a large enough effect; inconclusive = small, poorly fitted or top-dose-only effect, or effect the other way; inactive = no such curve, though single readings can be large or run the other way.
Reply using exactly one outcome from active, inactive

Previously resolved entries follow.
CC(C)C(=O)c1c(C(C)C)nn2ccccc12 ... inactive
COC(=O)C1=C(C)NC(C)=C(C(=O)OCC(C)C)C1c1ccccc1[N+](=O)[O-] (stereo unspecified) ... active
CCC1(O)CC2c3cc(OC)c(OC)cc3CCN2CC1CC(C)C (stereo unspecified) ... inactive
Cc1ccccc1OCC(O)CO (stereo unspecified) ... inactive
CC(=O)OC[C@]12[C@@H](OC(=O)c3ccoc3)C[C@@H]3[C@@H](OC(C)=O)[C@]1(OC3(C)C)[C@@](C)(O)C[C@H](OC(=O)c1ccoc1)[C@@H]2OC(=O)c1ccoc1 ... inactive

Query :: Record lookup: outcome of this test for COC1=CC(=O)O[C@@H](CCc2ccccc2)[C@@H]1O ?
Result :: inactive

Query :: Subsequent entry: CC(=O)N[C@H](Cc1ccc(O)cc1)C(=O)N[C@H](CCCN=C(N)N)C(=O)N[C@H](Cc1ccccc1)C(N)=O
Result :: inactive

Query :: Another compound to check: CCC(C)C(C(=O)O)N1Cc2c(OCC=C(C)C)c(C)c(OC)c(C(=O)O)c2C1=O (stereo unspecified)
Result :: inactive

Query :: Can you handle N#CCC(=O)NN next?
Result :: inactive

----------
For each of the compounds below, state its activity (max response).
assay: Cellular viability qHTS for adrenocortical cancer (ACC) cell line SW-13 (AID 1963989); conditions: SW-13 ACC cells viability, CellTiter-Glo, 48 h; stronger effect = lower value;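 further: cells grown in serum-free medium with ITS supplement; on the % scale 0 is the no-effect control and ±100 the full control effect; nearly all actives have a fitted effect of over 65% in size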
Records with an inconclusive call do not appear.
Numbers only, in %.

Answered cases to consult:
CN(c1nccc(=O)[nH]1)C1CCN(c2nc3ccccc3n2Cc2ccc(F)cc2)CC1 ... 5.56
CN1[C@@H]2CC[C@H]1CC(NC(=O)n1c(=O)[nH]c3ccccc31)C2 (stereo partly specified) ... 2.49
COc1ccccc1-c1cccc(-c2c(O)c3cc(C#N)c(Cl)cc3[nH]c2=O)c1 ... -20.9
COc1cc2nc(N3CCN(C(=O)c4ccco4)CC3)nc(N)c2cc1OC ... -8.85
Cc1c(Cn2c(C)nc3c(C(=O)O)cc(N4CCOCC4)cc32)cccc1C(F)(F)F ... 6.79
NNCCc1ccccc1 ... -8.17
Cc1cccc(-c2[nH]ncc2-c2ccc3ncccc3n2)n1 ... 4.45
O=C(NC1CCOCC1)c1ccc(-c2cc(-c3cn[nH]c3-c3ccccn3)ccn2)cc1 ... 6.28

Can you give me activity (max response) for all of these, one by one?
1. Cc1nc(-c2ccc(Cl)cc2)oc1COC(C)(C)C(=O)O
2. Cc1ccc(O)c(C(CCN(C(C)C)C(C)C)c2ccccc2)c1 (stereo unspecified)

Result ::
1: -4.84; 2: 1.99

Query :: For the compound Cc1cc(-c2ccccc2)nnc1NCCN1CCOCC1 , what activity (max response) is on record?
Result :: -11
